Where do the numbers come from? From ChEMBL document CHEMBL1177785.

Target: Potassium channel subfamily K member 10 (Rattus norvegicus)
Sequence (Q9JIS4 whole entry): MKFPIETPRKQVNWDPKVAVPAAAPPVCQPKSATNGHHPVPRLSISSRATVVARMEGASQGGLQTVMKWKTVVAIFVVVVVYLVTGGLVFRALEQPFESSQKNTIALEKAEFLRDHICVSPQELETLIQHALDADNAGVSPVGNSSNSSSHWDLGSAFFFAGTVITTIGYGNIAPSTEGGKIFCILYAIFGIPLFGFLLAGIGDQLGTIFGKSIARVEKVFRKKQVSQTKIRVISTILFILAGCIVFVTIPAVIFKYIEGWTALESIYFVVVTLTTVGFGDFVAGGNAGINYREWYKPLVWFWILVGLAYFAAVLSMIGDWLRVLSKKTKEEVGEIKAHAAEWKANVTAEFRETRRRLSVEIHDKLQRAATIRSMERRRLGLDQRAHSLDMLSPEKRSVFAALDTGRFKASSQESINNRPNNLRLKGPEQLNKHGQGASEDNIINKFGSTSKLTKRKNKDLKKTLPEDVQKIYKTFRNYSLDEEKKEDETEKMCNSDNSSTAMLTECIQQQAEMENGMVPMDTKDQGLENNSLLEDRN
Assay: Activation of rat TREK2 channel -mediated current expressed in HEK293 at 60 mV holding potential by patch clamp method
MEASURED_PROPERTY: pEC50
# reply with the number alone; pEC50 is -log10 of concentration in mol/L

Notebook: `Cc1ccc(S(=O)(=O)Oc2ccc(C(=O)/C=C/c3ccc(O)cc3)cc2)cc1` , pEC50 read as 3.78
